Origin of the recorded values: paper PMC8876975

METHOD NOTES: Cell viability % (MTT, normal cell line)
PROTOCOL CONDITIONS: human, MRC5 normal fetal lung fibroblast cells
Give measured viability at 72 h for each item. Keep answers brief.
Give just the numeric value; % need not be written.

IN: Return value of viability at 72 h for input CN(C)c1ccc(/C=C/C(=O)c2cccc(/N=N/c3ccc(O)cc3)c2)cc1 , no commentary.
OUT: 90.6

IN: Input CC(=O)c1cccc(/N=N/c2ccc(O)cc2)c1 , output reported viability at 72 h.
OUT: 80.3

IN: Using known records, supply viability at 72 h for CN(C)c1ccc(/C=C/C(=O)c2cccc(/N=N\c3c(O)ccc4ccccc34)c2)cc1
OUT: 87.2

IN: Return viability at 72 h for the following molecule: CC(=O)c1cccc(/N=N/c2ccc(O)c3ncccc23)c1
OUT: 82.5

IN: Consider the molecule CN(C)c1ccc(/C=C/C(=O)c2cccc(/N=N\c3ccc(O)c4ncccc34)c2)cc1 . State its measured viability at 72 h.
OUT: 88.4

IN: Assign viability at 72 h to the following record: CN(C)c1ccc(/C=C/C(=O)c2cccc(/N=N/c3ccc(O)cc3O)c2)cc1
OUT: 89.4

IN: Provide one value: measured viability at 72 h of CC(=O)c1cccc(/N=N/c2ccc(O)c(C(=O)O)c2)c1
OUT: 79.6

IN: Give viability at 72 h for the following molecule: O=C(/C=C/c1ccc(F)cc1)c1cccc(/N=N/c2ccc(O)cc2O)c1
OUT: 83.5

IN: Give a short answer stating reported viability at 72 h for CC(=O)c1cccc(/N=N/c2c(O)ccc3ccccc23)c1 .
OUT: 88.2

###

Field: IC50. Provide a value for each of the molecules that follow.
TARGET: human recombinant sPLA2-V (Homo sapiens, UniProt P39877)
Sequence (P39877 21-138): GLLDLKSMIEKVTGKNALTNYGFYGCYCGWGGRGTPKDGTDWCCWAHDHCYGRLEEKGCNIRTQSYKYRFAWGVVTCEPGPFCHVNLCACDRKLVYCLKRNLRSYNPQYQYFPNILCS
METHOD NOTES: Secretory PLA2-V activity assay (Ellman's photometric method)
The answer should read as a number with its unit following.

IN: Look up IC50 of CC(=O)c1cccc(/N=N/c2ccc(O)c3ncccc23)c1 [Compound A6] and report it.
OUT: 7.42 µM

IN: Return reported IC50. Input molecule: CN(C)c1ccc(/C=C/C(=O)c2cccc(/N=N\c3ccc(O)c4ncccc34)c2)cc1 [Compound C18]
OUT: 8.29 µM

IN: Specify IC50 for CC(=O)c1cccc(/N=N/c2ccc(O)cc2O)c1 [Compound A2] and stop.
OUT: 7.25 µM

###

TARGET: human recombinant COX-2 (Homo sapiens, UniProt P35354)
Construct: purchased Cayman Chemicals
Sequence (P35354 18-604): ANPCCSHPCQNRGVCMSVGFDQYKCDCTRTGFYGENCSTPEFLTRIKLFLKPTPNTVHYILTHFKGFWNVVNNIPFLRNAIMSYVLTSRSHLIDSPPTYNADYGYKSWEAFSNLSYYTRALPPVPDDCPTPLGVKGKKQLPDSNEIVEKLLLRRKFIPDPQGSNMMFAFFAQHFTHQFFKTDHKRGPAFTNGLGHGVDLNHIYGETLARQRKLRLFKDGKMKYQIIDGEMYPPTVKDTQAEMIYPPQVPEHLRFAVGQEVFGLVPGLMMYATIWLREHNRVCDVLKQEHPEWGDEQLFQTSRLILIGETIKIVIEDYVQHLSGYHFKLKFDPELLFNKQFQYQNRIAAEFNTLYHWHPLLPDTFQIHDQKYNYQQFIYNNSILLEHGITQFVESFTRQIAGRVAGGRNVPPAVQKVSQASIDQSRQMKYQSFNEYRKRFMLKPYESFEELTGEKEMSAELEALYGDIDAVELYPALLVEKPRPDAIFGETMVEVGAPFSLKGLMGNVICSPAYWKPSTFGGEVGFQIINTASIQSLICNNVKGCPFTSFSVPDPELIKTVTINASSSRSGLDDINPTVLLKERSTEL
METHOD NOTES: Cyclooxygenase assay (PGE2 quantification), COX-2
Type: biochemical
PROTOCOL CONDITIONS: mean ± SD; n = 3
With a cut-off of 10 µM, any IC50 strictly below it is called 1; any IC50 meeting it or above is called 0.

IN: Regarding CN(C)c1ccc(/C=C/C(=O)c2cccc(/N=N\c3ccc(O)c4ncccc34)c2)cc1 [Compound C18] , kindly confirm whether its IC50 is beneath 10 µM.
OUT: 1

IN: Answer whether the compound CC(=O)c1cccc(/N=N/c2ccc(O)cc2O)c1 [Compound A2] has IC50 strictly less than 10 µM
OUT: 0

IN: Field: below-cutoff. Rule: recorded IC50 strictly less than 10 µM. Subject: CC(=O)c1cccc(/N=N/c2ccc(O)c3ncccc23)c1 [Compound A6]
OUT: 1

IN: Is the reported IC50 for CN(C)c1ccc(/C=C/C(=O)c2cccc(/N=N/c3ccc(O)cc3)c2)cc1 [Compound C13] strictly below 10 µM?
OUT: 0

IN: API: query returns whether the compound falls strictly under 10 µM in IC50. Query: CC(=O)c1cccc(/N=N/c2ccc(O)c(C(=O)O)c2)c1 [Compound A3]
OUT: 1

IN: Item CC(=O)c1cccc(/N=N/c2c(O)ccc3ccccc23)c1 [Compound A5] : IC50 beneath 10 µM, strictly?
OUT: 0

IN: Answer whether the compound CN(C)c1ccc(/C=C/C(=O)c2cccc(/N=N/c3ccc(O)cc3O)c2)cc1 [Compound C14] has IC50 strictly less than 10 µM
OUT: 1

IN: IC50 under 10 µM? Item: O=C(/C=C/c1ccc(F)cc1)c1cccc(/N=N/c2ccc(O)cc2)c1 [Compound C7]
OUT: 0

IN: Please state whether IC50 is below 10 µM for CN(C)c1ccc(/C=C/C(=O)c2cccc(/N=N\c3c(O)ccc4ccccc34)c2)cc1 [Compound C17]
OUT: 1

IN: Is the reported IC50 for CN(C)c1ccc(/C=C/C(=O)c2cccc(/N=N/c3ccc(O)c4ccccc34)c2)cc1 [Compound C16] strictly below 10 µM?
OUT: 1
